Values from PubChem BioAssay (NCATS)

# Protocol: Cell Viability - LYMP1-002 - Assay at 16 hr (AID 948)
# Condition Details: LYMP1-002 lymphoblastoid cell viability; series mostly up to 92.2 µM
# Source text: NIH Chemical Genomics Center [NCGC] NIH Molecular Libraries Screening Centers Network [MLSCN] National Institutes of Environmental Health Sciences [NIEHS] National Toxicology Program [NTP] We have developed a 1536-well cell-based assay for quantitative high throughput screening (qHTS) against a number of cell lines to determine in vitro cytotoxicity of small molecules. […] 8. Detection; Luminescence; Viewlux plate reader […]
Records with an inconclusive call do not appear. Calls of active or inactive are those of the source. Calls follow the shape of the dose curve; as a rule, active = well fitted cell-killing curve with a large enough effect; inconclusive = small, poorly fitted or top-dose-only effect; inactive = flat fitted curve, though single readings scatter.
Result Type: outcome

>>> result("O=C1CCO1")
"inactive"
>>> result("O=C1C=CC(=O)C=C1")
"inactive"
>>> result("O=Cc1ccco1")
"inactive"

----------
# Measurement Target: Bile acid receptor (Homo sapiens) (UniProt Q96RI1)
# Sequence (Q96RI1 whole entry, looked up): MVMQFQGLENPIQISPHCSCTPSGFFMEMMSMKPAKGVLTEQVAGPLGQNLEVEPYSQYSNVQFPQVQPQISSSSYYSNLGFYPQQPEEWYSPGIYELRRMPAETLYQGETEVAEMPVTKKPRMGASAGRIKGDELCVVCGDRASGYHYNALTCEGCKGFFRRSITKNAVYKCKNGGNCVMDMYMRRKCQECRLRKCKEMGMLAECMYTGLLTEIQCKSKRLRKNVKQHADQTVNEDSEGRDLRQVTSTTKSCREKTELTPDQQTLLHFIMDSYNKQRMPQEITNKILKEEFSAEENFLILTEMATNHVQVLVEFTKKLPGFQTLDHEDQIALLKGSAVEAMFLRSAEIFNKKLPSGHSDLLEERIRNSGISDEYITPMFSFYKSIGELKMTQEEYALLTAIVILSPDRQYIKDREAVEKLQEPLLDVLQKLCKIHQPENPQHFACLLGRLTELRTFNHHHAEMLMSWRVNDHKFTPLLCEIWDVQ
# Protocol: qHTS assay for small molecule antagonists of farnesoid X receptor signaling (AID 588526)
# Condition Details: HEK293T FXR-UAS-bla, beta-lactamase ratio, antagonist mode; series mostly up to 76.7 µM
Results filed as inconclusive are left out. The source made the active and inactive calls. Calls follow the shape of the full dose curve.
Classes used: active, inactive

>>> answer_label("CCCCCCCCOC(=O)c1ccccc1C(=O)OCCCCCCCC")
"inactive"
>>> answer_label("CCCSP(=O)(OCC)SCCC")
"inactive"
>>> answer_label("C[CH2][Hg][S]c1ccccc1C(=O)O")
"active"
>>> answer_label("CC(C)(C)c1cc(O)ccc1O")
"inactive"
>>> answer_label("ClC=C(Cl)Cl")
"inactive"
>>> answer_label("COCC(C)N(C(=O)CCl)c1c(C)csc1C (stereo not drawn)")
"inactive"
>>> answer_label("O=C1CCO1")
"inactive"
>>> answer_label("ClC1C(Cl)C(Cl)C(Cl)C(Cl)C1Cl (stereo not drawn)")
"inactive"

----------
# Tested on: C33A
# Protocol: Primary qHTS to identify gynecologic anti-cancer compounds using libraries of approved drugs and bioactive compounds (AID 1345084); also: nearly all actives have a fitted effect of over 55% in size
# Condition Details: Gynecologic cancer cell panel viability, ATPlite luminescence, 48 h; series mostly up to 57.5 µM
Inconclusive results are not listed. The source made the active and inactive calls. The call rests on the fitted dose curve; in most records, active means well fitted cell-killing curve with a large enough effect; inconclusive means small, poorly fitted or top-dose-only effect, or effect the other way; inactive means flat fitted curve, though single readings scatter.
Result Type: outcome

>>> result("COc1cc(C)[nH]c(=O)c1CNC(=O)c1c(C)n([C@H](C)C2CCOCC2)c2ccccc12")
"inactive"
>>> result("CCC(C)(C#N)O[C@@H]1O[C@H](CO)[C@@H](O)[C@H](O)[C@H]1O (stereo not given in full)")
"inactive"
>>> result("CC1=C2C[C@H]3[C@@H](CC=C4C[C@@H](O)CC[C@@]43C)[C@@H]2CC[C@]12O[C@@H]1C[C@H](C)CN[C@H]1[C@H]2C")
"inactive"
>>> result("C=C[C@H]1CN2CC[C@H]1C[C@@H]2[C@@H](O)c1ccnc2ccccc12")
"inactive"
>>> result("CC(C)C1(OO)C=C2C(=O)CC3C(C)(C(=O)O)CCCC3(C)C2CC1 (stereo not given)")
"inactive"
>>> result("O=C(O)c1ccnc2cc(C(OCCN3CCCCC3)c3ccccc3Cl)[nH]c12 (stereo not given)")
"inactive"
>>> result("O=C(N1CCOCC1)N1CCN(c2ccc(Cl)cc2)CC1")
"inactive"
>>> result("Cc1cccc(NC(=O)N[C@@H]2N=C(c3ccccc3)c3ccccc3N(C)C2=O)c1")
"inactive"
>>> result("CCCN1CCO[C@H]2c3cc(O)ccc3OC[C@@H]21")
"inactive"
>>> result("OC1(c2ccc(Cl)cc2)c2ccccc2C2=NCCN21 (stereo not given)")
"inactive"
